Please respond with reported cytotoxicity at 10 µM for every item in the list.
# assay.remarks: Toxicity liver stage against HepG2, at 10uM
# Type: cell-based
# Set-up: test concentration 10 uM, cell line HepG2-A16-CD81EGFP
# conditions: human, HepG2-A16-CD81EGFP cells; read-out: INHIBITION
Numbers only, in %.

Consider the reported cytotoxicity at 10 µM for these molecules:
molecule	cytotoxicity at 10 µM (%)
Cc1ccccc1C(=O)N1CCC2(CC1)CC(c1cnn(C)c1)CO2 (stereo not given)	-75
O=C(c1ccc(-c2ccc(O)nc2)s1)N1CCCCCC1	4.51

Provide the reported cytotoxicity at 10 µM of each entry below, same order.
1. O=C(NCc1ccccn1)[C@]12COC[C@H]1CN(Cc1ccsc1)C2
2. Cn1cccc1C(=O)N[C@@H]1CN(S(C)(=O)=O)[C@@H]2COC[C@@H]21
3. CN(C)C(=O)c1ccccc1NC(=O)N[C@@H]1c2ccccc2C[C@@H]1O
4. COCCc1ncc(-c2c(C#N)c(N)nc3c2CCc2[nH]ccc2-3)cn1
5. OC(CN1CCC(c2ccn[nH]2)CC1)c1ccccc1F (stereo not given)

1. 4.91
2. 14.1
3. -43.1
4. -0.508
5. -25.5

====

# assay.remarks: Toxicity liver stage against HepG2, at 10uM
# Assay type: cell-based
# Set-up: test concentration 10 uM, cell line HepG2-A16-CD81EGFP
# conditions: human, HepG2-A16-CD81EGFP cells; read-out: INHIBITION
Task for the reader: assign each of the following molecules its reported cytotoxicity at 10 µM.
Answers are plain numbers, in %.

molecule	units	cytotoxicity at 10 µM
CCN(Cc1cnn(CC)c1)Cc1c(Cl)cncc1Cl	%	-2.65
Cc1ccc2c(c1)C(NC1CCN(C)CC1)CCCO2 (stereo not drawn)	%	-8.2

Lab note: measured cytotoxicity at 10 µM of Cn1nccc1CN1CCOC(c2ccc(-c3cncnc3)cn2)C1 (stereo not drawn) was 3.27

====

Answer each item with its documented cytotoxicity at 10 µM.
# assay.remarks: Toxicity liver stage against HepG2, at 10uM
# Format: cell-based
# Design: test concentration 10 uM, cell line HepG2-A16-CD81EGFP
# conditions: human, HepG2-A16-CD81EGFP cells; read-out: INHIBITION
Numbers only, in %.

compound	measured.quantity	units	experimental.result
COc1nc2c(cc1C(=O)N(C)Cc1[nH]nc3c1CCC3)CCC2	cytotoxicity at 10 µM	%	-1.77
COc1cccc(CNCc2c(C(C)C)nn(C)c2N(C)C)c1	cytotoxicity at 10 µM	%	-7.36
FC(F)(F)Cn1ccnc1CNCCn1cccn1	cytotoxicity at 10 µM	%	-6.4
NC(=O)CCC1CCCN(c2ccc3ccc(F)cc3n2)C1 (stereo unspecified)	cytotoxicity at 10 µM	%	-0.386
CN(C)CCN1CC(C(=O)N2CCC(c3cccc(O)c3)CC2)CC1=O (stereo unspecified)	cytotoxicity at 10 µM	%	0.0902

Hey, can you go through the list below and give me cytotoxicity at 10 µM for every item?
1. CCOCCCC(=O)NC1CCN(C(C)c2ccccc2)CC1 (stereo unspecified)
2. O=C(NCC(F)(F)F)C1CN(C(=O)c2cnccn2)C1
3. Cc1ccc(N2CCCC(N(C)Cc3ccccn3)C2)nn1 (stereo unspecified)
4. Cc1cc(C)n(CC(C)CNC(=O)NCc2csc(C)n2)n1 (stereo unspecified)
5. COC(=O)[C@H](CSC)Nc1nc(C2CCCC2)nc2c1cnn2C
6. Cn1cc(C(=O)Nc2ccc(CN3CCOCC3)cn2)cn1
7. CNc1nccnc1C1CN(Cc2ccc(OCC(=O)O)cc2)CCO1 (stereo unspecified)

[4.05, 2.24, -4.01, 11, -52.6, 6.95, -5.73]

Batch request: cytotoxicity at 10 µM per item, same order as input.
1. COCC(c1cccc(C(F)(F)F)c1)N(C)C(=O)c1cccnc1 (stereo unspecified)
2. N#Cc1ccc(N2CCC3(CC2)COCCN3Cc2cccnc2)cc1
3. COc1c(CNCc2cccc(C(=O)N(C)C)c2)c(C)nn1C

[-5.28, -1.77, -16.9]

CCOCc1nc2c(c(NCc3cc(C)on3)n1)CCN(C(C)=O)CC2 yielded cytotoxicity at 10 µM of 2.24
